Please go through the items and note down their IC50.
# targetEntity: HLA-DRB1*1302 (DR6w19) (Homo sapiens, UniProt P01903+P01911, A100E/A169T/K41T/L162R/M171V/P40S/Q125H/Q178H/Q39Y/Q99D/R42S/S66N/T262R/V115G/W38E/Y61H)
# Sequence (P01903 26-254 limits assumed, other chains not shown): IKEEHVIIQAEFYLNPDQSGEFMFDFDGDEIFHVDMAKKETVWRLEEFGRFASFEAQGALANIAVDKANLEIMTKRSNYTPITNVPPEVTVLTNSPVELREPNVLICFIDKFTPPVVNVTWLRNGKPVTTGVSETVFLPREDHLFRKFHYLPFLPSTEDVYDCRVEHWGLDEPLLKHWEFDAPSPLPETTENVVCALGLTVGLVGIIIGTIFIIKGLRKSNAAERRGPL
# assayName: purified HLA class II binding assay, DRB1*1302 (DR6w19)
No end group written: not given here.
Could you give me the number in nM? Just the number is fine.

# IC50 of HSNWRAMASDFNLPP [Peptide 27.0364] = 4370

Entry under test: QHLLQLTVWGIKQLQ [Peptide 27.0297] . Its IC50 was 350

Given item QKQITKIQNFRVYYR [Peptide 27.0377] , the value recorded as its IC50 is 25

Values were extracted from patent US20050271676A1.
